Reference source for all entries: patent US20130029902A1

TARGET: EGFP-hCXCR4 (human, UniProt P61073 1-352)
Sequence (P61073 whole entry): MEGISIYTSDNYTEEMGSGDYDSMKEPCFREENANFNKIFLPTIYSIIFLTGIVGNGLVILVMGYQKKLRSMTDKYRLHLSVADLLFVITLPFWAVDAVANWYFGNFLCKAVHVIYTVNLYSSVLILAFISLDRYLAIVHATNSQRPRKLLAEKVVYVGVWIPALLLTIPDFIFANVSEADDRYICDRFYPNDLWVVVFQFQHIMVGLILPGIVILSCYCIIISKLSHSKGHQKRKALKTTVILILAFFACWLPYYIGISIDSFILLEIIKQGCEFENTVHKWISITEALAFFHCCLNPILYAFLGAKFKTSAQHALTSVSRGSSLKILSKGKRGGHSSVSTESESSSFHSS
METHOD_SUMMARY: competition with 100 nM CXCL12-TR on HEK293 cells expressing EGFP-hCXCR4, FRET
MEASUREMENT_KIND: pEC50
pEC50 is defined as minus the log10 of a concentration measured in mol/L.

May I ask what pEC50 has been recorded for LVRYTKKVPQVSTPTL (also called Human circulating antiviral albumin fragment; wild type peptide) [ALB408-423] ?
5.10
